- Test system: M14 melanoma
- assay.summary: NCI-60 one-dose screen, 48 h
- settings: 10 µM unless noted
- Method: Growth inhibition of the M14 human tumor cell line is measured as a screen for anti-cancer activity. Cells are grown in 96 well plates and exposed to the test compound for 48 hours. Compounds are tested at a single concentration, which is 10^-5 M for most compounds. The reported endpoint is percent growth (GI% or GIPRCNT), where numbers from 0 - 100% represent growth inhibition, and numbers from -100% - 0 represent cell death. For example, a value of 40 represents 60% growth inhibition. […]
Compounds without any hit were thinned out: in the full panel of roughly 83,000, 20% have a hit. Activity calls are given as the source filed them. How the source made its calls: active means growth percent below 10; inactive means the rest.
Outcomes: Y (active), N (inactive)

• OCCCc1n(Cc2ccc3ccccc3c2)c2ccccc2[n+]1Cc1ccc2ccccc2c1 = Y
• CSc1nc(Nc2ccc(S(=O)(=O)Nc3ccon3)cc2)c(C#N)c(-c2ccc(Cl)cc2)n1 = N
• CCOC(=O)Nc1ccc2c3c(cccc13)-c1ccccc1-2 = Y
• CCN(CC)CCNCC(=O)Oc1ccc(/C=C/C(=O)CC(=O)/C=C/c2ccc(OC(=O)CNCCN(CC)CC)c(OC)c2)cc1OC = Y
• COC(=O)[C@H](Cc1cn(C)cn1)NC(=O)[C@H](Cc1ccccc1)NC(=O)Nc1cc(C(F)(F)F)cc(C(F)(F)F)c1 = Y
• COc1ccc(C2=NN(C(N)=S)C(c3ccc4c(c3)OCO4)C2)cc1 (configuration not stated) = N
• NS(=O)(=O)c1cc(C2(O)NC(=O)c3ccccc32)ccc1Cl (configuration not stated) = N
• C/C(=C\CCc1ccoc1)CC/C=C(\C)CCCNc1ccc(F)cc1 = N
• O=C(N/N=C/c1cccc(O)c1)c1ccc(C(F)(F)F)nc1Nc1cccc(C(F)(F)F)c1 = N
• COc1ccc2cc(-c3nc4ccccc4[nH]3)c(=O)oc2c1 = N
• COc1ccc2[nH]c(=O)c(CNc3ccc(Nc4nccc(-c5ccc(Cl)cc5)n4)cc3)cc2c1 = N
• CCOC(=O)c1sc(NC(=O)COc2ccc(/C=C3\CCc4cc(OC)ccc4C3=O)cc2)nc1C = N
• OC(c1cc(-c2cccc(Cl)c2)nc2ccccc12)C1CCCCN1 (configuration not stated) = Y
• COc1cnc2c(c1)C(=O)c1c-2n(CCCN2CCC(O)CC2)c(=O)c2cc(F)ccc12 = Y
• Clc1ccc2c(c1)C(Br)c1cc(Cl)cc(Cl)c1-2 (configuration not stated) = N
• CC1CN(/N=C/c2ccc([N+](=O)[O-])o2)C(=N)O1 (configuration not stated) = N
• COc1cccc(C2=NN(C(C)=O)C(c3cc(OC)c(OC)c(OC)c3)C2)c1 (configuration not stated) = N
• Cn1c(=O)c2[nH]c(=S)n(Cc3ccccc3)c2n(C)c1=O = N
• NC(=N\N=C/Cc1ccccc1)/C(N)=N\N=C\Cc1ccccc1 = N
• Cn1cnc([N+](=O)[O-])c1Sc1nc(N)nc2nc[nH]c12 = N
• Cc1ccc(/C=C/C(=O)c2ccc(F)cc2)s1 = N
• CC1Cc2ccccc2N1C(=O)c1ccc(C(=O)c2ccccc2)cc1 (configuration not stated) = N
• N#Cc1c(-c2ccccc2)cc(-c2ccccc2)n(CCCCC(=O)O)c1=O = N
• N#Cc1ncc(-c2ccc(C(F)(F)F)cc2)c(NC2CCCCCC2)n1 = N
• COc1ccc(-c2cc(-c3cccnc3)nc(S(=O)(=O)CC(=O)Nc3ccc(C)cc3)c2C#N)cc1OC = N
• COc1ccc(-c2c3c(N)nc(-c4ccncc4)nc3nc3c2c(C)nn3-c2ccccc2)cc1 = N
• CC(NC(=O)Oc1cccc2ccccc12)c1ccccc1 (configuration not stated) = N
• Nc1ccc2c(c1)Cc1cc(Cl)c(Cl)cc1-2 = Y
• COc1ccc(NS(=O)(=O)N2CCCCC2)cc1 = N
• C/C(=C\CCc1ccoc1)CC/C=C(\C)CCCN1CCSCC1 = N
• O=C(O)C1CCN(S(=O)(=O)c2ccc(-c3ccccc3)cc2)CC1 = N
• Cc1ccc2nc(-c3ccc(N(C)C)c(Br)c3)cn2c1 = N
• CCCCCCCCCCOC(C)=O = N
• Cc1cc2ccccn2c1C(=O)c1ccc(C(=O)c2ccccc2)cc1 = N
• O=C(c1ccc(Cl)cc1)c1ccc(Cl)cc1 = N
• CC[n+]1c(/C=C/c2ccc(N3CCCC3)cc2)cccc1/C=C/c1ccc(N2CCCC2)cc1 = Y
• O=C(N/N=C/c1cccc(O)c1O)c1ccccc1 = N
• CCCCOP(=O)(OCCCC)C(C(=O)OCC)C(CC(=O)OCC)C(=O)OCC (configuration not stated) = N
• CN1CCC[C@@H]1CCO[C@](C)(c1ccccc1)c1ccc(Cl)cc1 = N
• NS(=O)(=O)c1ccc(-n2ncc3c(NC4CCCCC4)ncnc32)cc1 = N
• COc1ccc(-n2cnc3cc(C(=O)N4CCCCC4)ccc32)cc1 = N
• COC(=O)[C@H]1[C@H]2C[C@@H]3c4[nH]c5cc(OC)ccc5c4CCN3C[C@H]2C[C@@H](OC(=O)/C=C/c2cc(OC)c(OC)c(OC)c2)[C@@H]1OC = N

* * *

- Tested on: SK-MEL-2 melanoma
- assay.summary: NCI-60 one-dose screen, 48 h
- settings: 10 µM unless noted
About 83,000 compounds went through this panel and 20% of them were active in at least one assay; those are over-represented in the sample as a whole. Activity calls are given as the source filed them. How the source made its calls: active means growth percent below 10; inactive means the rest.
Labels: active, inactive

• OCCN1CCN(CCCN2c3ccccc3Sc3ccc(C(F)(F)F)cc32)CC1 = active
• Cc1cc(=O)[nH]c(/C(=N/Nc2ccccc2)C(=O)c2ccc(Cl)cc2)n1 = inactive
• COP(=O)(OC)C(c1ccc(O)cc1)(c1ccc(O)cc1)c1ccc(O)cc1 = inactive
• CN[C@@H]1C(OC2[C@H](O[C@H]3[C@H](O)[C@@H](O)[C@H](N=C(N)N)[C@@H](O)[C@@H]3N=C(N)N)OC(C)[C@]2(O)CO)OC(CO)C(O)C1O (stereo not given in full) = inactive
• CSc1nc(Nc2ccc(S(=O)(=O)Nc3ccon3)cc2)c(C#N)c(-c2ccc(Cl)cc2)n1 = inactive
• O=C1c2cccc3c([N+](=O)[O-])ccc(c23)C(=O)N1CCCCl = active
• CC(=O)Nc1cc2c3c(cccc3c1)-c1ccccc1-2 = inactive
• CCNCCCn1c2c(c3ccc(F)cc3c1=O)C(=O)c1cc(OC)cnc1-2 = active
• CC(C)CNc1nc(N=[N+]=[N-])nc(NCC(C)C)n1 = inactive
• COc1cc(/C=N/OC(=O)Nc2ccccc2)cc(OC)c1OC = inactive

* * *

- System: SF-268 CNS
- assay.summary: NCI-60 one-dose screen, 48 h
- settings: 10 µM unless noted
The panel holds about 83,000 compounds, 20% with a hit somewhere; the sample as a whole holds those more often. The source made the active and inactive calls. The calls were made as follows: active = growth percent below 10; inactive = the rest.
Labels: active, inactive

* O=C(O)c1ccc2cccnc2c1O | inactive
* N#CC(C#N)C(C#N)C#N | inactive
* O=C(NCCNC(=O)Oc1cccc2ccccc12)Oc1cccc2ccccc12 | inactive
* CC(=O)N1N=C(c2ccc(Nc3nc(NCCO)nc(NCCO)n3)cc2)CC1c1ccc(Cl)cc1 (stereo not given) | inactive
* Cc1ccc(-c2c3c(N)nc(-c4ccncc4)nc3nc3c2c(C)nn3-c2ccccc2)cc1 | inactive
* NS(=O)(=O)c1ccc(-n2nc(-c3ccc(Br)cc3)ccc2=O)cc1 | inactive
* COc1cc(/C=C2\SC(N3CCCCC3)=NC2=O)ccc1OCCCCCCOc1ccc(/C=C2\SC(N3CCCCC3)=NC2=O)cc1OC | active
* O=C(NCCCl)NCCN1c2nc3ccccc3cc2Sc2cc3ccccc3nc21 | inactive
* COc1ccc(-c2c3c(N)nc(-c4ccncc4)nc3nc3c2c(C)nn3-c2ccccc2)cc1 | inactive
* COC(=O)[C@H](Cc1cnc[nH]1)NC(=O)[C@@H](NC(=O)Nc1cc(C(F)(F)F)cc(C(F)(F)F)c1)C(C)C | active

* * *

- Tested on: A549/ATCC NSCLC
- assay.summary: NCI-60 one-dose screen, 48 h (100 = growth as untreated, 0 = no growth, -100 = all killed)
- settings: 10 µM unless noted
About 83,000 compounds went through this panel and 20% of them were active in at least one assay; those are over-represented in the sample as a whole.
Known growth of a selection of compounds
parameter: growth (%)

- O=C(C(=O)c1cc(Br)ccc1O)c1cc(Br)ccc1O: 50.7
- CN1CCN(c2nc3scc(-c4ccccc4)c3c(=O)[nH]2)CC1: 99
- CCOC(=O)C1C(=O)NC(C(=O)OCC)(C(=O)OCC)C1CC (centres undefined): 97.2
- Cc1ccccc1NC(=O)N/C(N)=N/c1nc2ccccc2s1: 22.7
- O=C1NC(=O)/C(=C\c2ccco2)S1: 108
- O=C1C(=O)c2c(nc3ccc(Cl)cn23)-c2ccccc21: -80.8
- O=C(CN1CCN(c2ccc(Cl)cc2)CC1)N1CCN(c2nnc(-c3ccccc3)c(-c3ccccc3)n2)CC1: -6.5
- C[C@@H]1[C@H]2[C@H](C=C3[C@@H]4CC[C@H]5Cc6nc7c(nc6C[C@]5(C)[C@H]4C[C@@H](O)[C@@]32C)C[C@@H]2CC[C@H]3C4=C[C@@H]5O[C@@]6(CC[C@](C)(CO)O6)[C@@H](C)[C@@]5(O)[C@@]4(C)[C@H](O)C[C@@H]3[C@@]2(C)C7)O[C@]12CCC(C)(C)O2: 12.8
- Cc1[nH]cnc1/C=C1\SC(N2CCCCC2)=NC1=O: 96.8
